- Assay Method Text: Highest frequency of acute liver toxicity observed during clinical trials, expressed as a percentage. [column '% AIGUE' in source]
- Assay Conditions: human
// reported Hepatotoxicity (acute) for each item listed
Readout Kind: Hepatotoxicity (acute) (%)

INSERT INTO assay_data (molecule, experimental_value) VALUES
  ('CC=CC1=C(C(=O)O)N2C(=O)[C@@H](NC(=O)[C@H](N)c3ccc(O)cc3)[C@H]2SC1', 0.6),
  ('COC(=O)[C@H]1[C@H]2C[C@@H]3c4[nH]c5cc(OC)ccc5c4CCN3C[C@H]2C[C@@H](OC(=O)c2cc(OC)c(OC)c(OC)c2)[C@@H]1OC', 0),
  ('C[C@H]1c2cccc(O)c2C(=O)C2=C(O)[C@]3(O)C(=O)C(C(N)=O)=C(O)[C@@H](N(C)C)[C@@H]3[C@@H](O)[C@@H]21.O', 0);
